assay: Cell viability assay (Cell Titer Glow) in mock-infected RPE cells, cytotoxicity; conditions: human
MEASURED QUANTITY: CC50 at 48 h
Give the number first and the unit second.

Exam item: Report CC50 at 48 h for C#C[C@]1(O)CC[C@H]2[C@@H]3CCC4=CCCC[C@@H]4[C@H]3C(=C)C[C@@]21CC [desogestrel, Desogestrel] please.
Marked response: 34.5 µM

Exam item: Also OCc1cc(C(O)CNCCCCCCOCCCCc2ccccc2)ccc1O (stereo not drawn) [salmeterol, Salmeterol] ?
Marked response: 29.3 µM

Exam item: Same for C=C1CC[C@H](O)C/C1=C/C=C1\CCC[C@]2(C)[C@@H]([C@H](C)CCCC(C)C)CC[C@@H]12 [vitamin D3, Vitamin D3 (colecalciferol)]
Marked response: 48.8 µM

Exam item: Another: CCC(C)(C)C(=O)O[C@H]1C[C@@H](C)C=C2C=C[C@H](C)[C@H](CC[C@@H]3C[C@@H](O)CC(=O)O3)[C@H]21 [simvastatin, Simvastatin]
Marked response: 48.3 µM

Exam item: # iterate: CN[C@H]1CC[C@@H](c2ccc(Cl)c(Cl)c2)c2ccccc21 [sertraline, Sertraline]
Marked response: 17.5 µM

Exam item: Now consider C=C1CC[C@H](O)C/C1=C/C=C1\CCC[C@]2(C)[C@@H]([C@H](C)/C=C/[C@H](C)C(C)C)CC[C@@H]12 [vitamin D2, Vitamin D2] and answer again.
Marked response: 42.1 µM
